- study_system: gastrin-releasing peptide receptor (Homo sapiens, UniProt P30550)
- Sequence (P30550 whole entry): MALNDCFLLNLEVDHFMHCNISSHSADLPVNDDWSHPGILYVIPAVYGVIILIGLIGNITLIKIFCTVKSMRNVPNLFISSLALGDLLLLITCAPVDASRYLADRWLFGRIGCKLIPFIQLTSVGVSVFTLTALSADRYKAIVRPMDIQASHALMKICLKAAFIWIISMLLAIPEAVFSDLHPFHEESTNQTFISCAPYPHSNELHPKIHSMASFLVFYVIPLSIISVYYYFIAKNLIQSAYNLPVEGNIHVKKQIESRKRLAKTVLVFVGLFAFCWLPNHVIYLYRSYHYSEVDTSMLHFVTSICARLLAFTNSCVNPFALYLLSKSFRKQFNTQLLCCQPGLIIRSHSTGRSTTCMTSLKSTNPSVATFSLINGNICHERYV
- measurement_description: LigandTracer on PC-3 cells (1:2 model, KD2)
I'd appreciate it if you could supply Kd values for the items below.
Numeric only. Scale: nM

For the binder SSSFQWAVGHL (99mTc, mercaptoacetyl-Ser-Ser-Ser-PEG2-D-Phe-Gln-Trp-Ala-Val-Gly-His-Sta-Leu-NH2) [maSSS-PEG2-RM26] , what Kd is on record?
1.2

What value of Kd has been reported for the following binder? SESFQWAVGHL (99mTc, mercaptoacetyl-Ser-Glu-Ser-PEG2-D-Phe-Gln-Trp-Ala-Val-Gly-His-Sta-Leu-NH2) [maSES-PEG2-RM26]
1.4
